Substrate: O=CC=O
assayExplanation: purified protein
Type: biochemical, Arabidopsis thaliana
measurementConditions: true substrate is the hemithioacetal of GO and GSH (preformed 30 min; HTA concentration calculated with Kdiss 3.0 mM), 1.7 mM GSH, 0.5 mM Mn2+, 100 mM MOPS pH 7.0, 25 °C
readout: kcat/Km (M⁻¹ s⁻¹)
One number for each entry, in M⁻¹ s⁻¹.

Value of kcat/Km reported for the protein GLXI;2 (Col-0 GLXI;2) (Arabidopsis thaliana) (protein, monomer; two domains, active site 2 (His89, Glu137, Gln150, Glu201)) MAEASDLLEWPKKDNRRFLHVVYRVGDLDRTIEFYTEVFGMKLLRKRDIPEEKYSNAFLGFGPETSNFVVELTYNYGVSSYDIGTGFGHFAISTQDVSKLVENVRAKGGNVTREPGPVKGGGSVIAFVKDPDGYTFELIQRGPTPEPFCQVMLRVGDLDRAIKFYEKALGMRLLRKIERPEYKYTIGMMGYAEEYESIVLELTYNYDVTEYTKGNAYAQIAIGTDDVYKSGEVIKIVNQELGGKITREAGPLPGLGTKIVSFLDPDGWKTVLVDNKDFLKELE is 6800
